# target under test: T1, Lsb3, P43603
# T1 sequence (P43603 385-451, looked up): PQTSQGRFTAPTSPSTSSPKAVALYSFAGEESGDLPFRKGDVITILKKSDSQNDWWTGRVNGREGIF
# assay method text: SPOT array
# measurement context: median of control spots 406
endpoint: SPOT intensity

Field: example entries. Status: answers known.
> print(dat)
            binder  obs.value
1  NLDRSKISLPDFDDE          0
2  GERSRPLVISILSSA          0

A. STKKPRPPVKSKPKH
B. MAMRPIPPLPTESEY
C. RRASLFPRDPKRLRP
D. LKRITSPPLPPRADS
E. RRSKSLPTTPGIRSG
Highest SPOT intensity first, then in falling order down to the smallest. # the answer lists labels in the order requested
D, B, C, E, A
(D: 566, B: 131, C: 2, E: 1, A: 0)

Where do these numbers come from? They come from paper PMC2756588.
